Origin of measurements: patent US20220251081A1

- System: SAM in HCT116 human colon carcinoma cell line with deleted MTAP gene
- test.details: Cellular assay of target engagement (SAM): SAM level by LC-MS/MS after 72 hrs
- Type: cell-based
- particulars: HCT-116, IC50 score, read-out: Cell 72 h SAM Inhibition (MTAP −/−)
readout.kind: IC50

compound: COc1ccc(-n2c(=O)c(-c3ccc4[nH]cnc4c3)cc3cnc(NCC(F)(F)F)nc32)cc1 [Example 174]
measured: < 0.1 µM
--
compound: COc1ccc(-n2c(=O)c(-c3ccc4ncncc4c3)cc3cnc(NCC(F)(F)F)nc32)cc1 [Example 176]
measured: < 0.1 µM
--
compound: Cn1cc2cc(-c3cc4ccc(OCC(F)(F)F)nc4n(-c4ccc(Br)cc4)c3=O)ccc2n1 [Example 319]
measured: < 0.1 µM
--
compound: [2H]C([2H])([2H])Oc1ccc(-n2c(=O)c(-c3ccc4nn(C)cc4c3)nc3ccc(OCC(F)F)nc32)cc1 [Example 325]
measured: < 0.1 µM
